- METHOD SUMMARY: pharmacokinetics of SR 4554 in EMT-6 tumor-bearing mice (HPLC)
- Format: in vivo, mouse
- STUDY CONDITIONS: mouse, in vivo, ip; i.p. 180 mg/kg; read-out: bioavailability ratio relative to i.v., i.p.
MEASURED METRIC: bioavailability (%)
// units = %; emit number, no label

Reported bioavailability for O=C(Cn1ccnc1[N+](=O)[O-])NCC(O)C(F)(F)F (racemic) was 100

----------
- METHOD SUMMARY: pharmacokinetics of SR 4554 in EMT-6 tumor-bearing mice (HPLC)
- Assay type: in vivo, mouse
- STUDY CONDITIONS: mouse, plasma; read-out: tmax, plasma (converted)
MEASURED METRIC: Tmax (min)
// units = min; emit number, no label

Reported Tmax for O=C(Cn1ccnc1[N+](=O)[O-])NCC(O)C(F)(F)F (racemic) was 30
